Target: IKZF1 (Homo sapiens, UniProt Q13422+Q96SW2)
Construct: expressed in transfected cells
Sequence (Q13422 whole entry): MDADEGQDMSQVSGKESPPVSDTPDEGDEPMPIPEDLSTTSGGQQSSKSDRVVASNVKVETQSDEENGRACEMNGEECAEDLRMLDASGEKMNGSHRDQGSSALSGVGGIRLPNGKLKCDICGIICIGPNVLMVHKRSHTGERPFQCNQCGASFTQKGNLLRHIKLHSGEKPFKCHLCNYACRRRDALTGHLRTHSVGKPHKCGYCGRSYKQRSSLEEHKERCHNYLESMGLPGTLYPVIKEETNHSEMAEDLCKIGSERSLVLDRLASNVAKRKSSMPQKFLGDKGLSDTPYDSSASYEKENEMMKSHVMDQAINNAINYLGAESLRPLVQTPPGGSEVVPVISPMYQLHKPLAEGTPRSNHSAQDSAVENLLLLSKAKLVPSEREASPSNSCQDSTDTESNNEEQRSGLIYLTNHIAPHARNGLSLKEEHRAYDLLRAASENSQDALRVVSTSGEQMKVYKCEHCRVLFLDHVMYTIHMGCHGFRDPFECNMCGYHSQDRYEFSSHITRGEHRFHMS
Sequence (Q96SW2 whole entry): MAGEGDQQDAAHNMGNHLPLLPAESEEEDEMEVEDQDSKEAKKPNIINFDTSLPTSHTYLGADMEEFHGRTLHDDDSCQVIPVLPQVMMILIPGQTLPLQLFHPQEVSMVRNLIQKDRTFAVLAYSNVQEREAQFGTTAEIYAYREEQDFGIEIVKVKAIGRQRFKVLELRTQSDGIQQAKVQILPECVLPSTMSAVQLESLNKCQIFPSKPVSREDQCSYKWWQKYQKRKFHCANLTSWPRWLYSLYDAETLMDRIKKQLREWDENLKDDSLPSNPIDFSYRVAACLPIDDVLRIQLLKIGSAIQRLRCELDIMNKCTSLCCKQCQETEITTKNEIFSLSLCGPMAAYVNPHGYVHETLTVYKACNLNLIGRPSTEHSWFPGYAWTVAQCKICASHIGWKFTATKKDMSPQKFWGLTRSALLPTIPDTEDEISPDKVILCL
Sequence (Q16531 whole entry partner): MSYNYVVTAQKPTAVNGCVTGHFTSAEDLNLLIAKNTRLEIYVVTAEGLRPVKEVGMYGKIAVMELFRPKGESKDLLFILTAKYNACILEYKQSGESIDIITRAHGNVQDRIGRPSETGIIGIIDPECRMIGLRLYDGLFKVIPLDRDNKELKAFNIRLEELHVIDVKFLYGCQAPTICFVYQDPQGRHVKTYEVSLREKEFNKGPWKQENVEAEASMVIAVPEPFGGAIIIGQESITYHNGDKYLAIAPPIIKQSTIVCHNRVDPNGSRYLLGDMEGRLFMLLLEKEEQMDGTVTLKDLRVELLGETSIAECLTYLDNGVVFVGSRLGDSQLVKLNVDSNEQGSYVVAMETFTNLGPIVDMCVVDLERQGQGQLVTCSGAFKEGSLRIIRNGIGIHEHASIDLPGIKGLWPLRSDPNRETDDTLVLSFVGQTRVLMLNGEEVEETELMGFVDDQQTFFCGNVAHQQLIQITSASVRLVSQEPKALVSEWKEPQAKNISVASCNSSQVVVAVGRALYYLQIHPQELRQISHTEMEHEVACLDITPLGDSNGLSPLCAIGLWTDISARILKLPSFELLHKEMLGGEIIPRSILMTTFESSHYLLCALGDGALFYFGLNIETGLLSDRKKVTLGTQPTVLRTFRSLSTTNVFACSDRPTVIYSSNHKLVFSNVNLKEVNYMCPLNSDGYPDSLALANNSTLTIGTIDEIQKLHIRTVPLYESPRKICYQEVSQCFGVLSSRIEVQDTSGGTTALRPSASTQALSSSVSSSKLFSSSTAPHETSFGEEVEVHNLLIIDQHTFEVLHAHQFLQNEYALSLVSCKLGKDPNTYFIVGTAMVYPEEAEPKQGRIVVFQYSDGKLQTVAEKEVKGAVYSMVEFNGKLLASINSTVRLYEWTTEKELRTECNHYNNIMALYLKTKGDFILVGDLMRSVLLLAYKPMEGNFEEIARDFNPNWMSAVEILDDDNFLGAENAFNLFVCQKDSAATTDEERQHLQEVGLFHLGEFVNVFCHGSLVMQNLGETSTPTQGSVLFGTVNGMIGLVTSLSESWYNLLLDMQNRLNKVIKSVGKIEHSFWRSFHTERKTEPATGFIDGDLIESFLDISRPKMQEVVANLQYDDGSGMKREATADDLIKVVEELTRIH
Assay: HiBiT protein tagging assay, in vitro IKZF1 degradation (HEK293)
Format: cell-based
Conditions: HEK293, 18-24 hr incubation, normalized to DMSO control, read-out: IKZF1 Dmax (maximum degradation at the highest concentration tested)
One threshold, 70%, splits the recorded Dmax values: lower ones are T, equal or higher ones are F.

[[record]]
compound = "COC(=O)C1(C)CCCC(NCc2ccc3c(c2)CN(C2CCC(=O)NC2=O)C3=O)C1 (stereo not drawn) [Example 144]"
label = "T"

[[record]]
compound = "CC1(C)C[C@]2(CC[C@@H](NCc3ccc4c(c3)CN(C3CCC(=O)NC3=O)C4=O)CC2)CO1 (stereo partly drawn) [Example 118]"
label = "T"

[[record]]
compound = "O=C1CCC(N2Cc3cc(CN[C@@H]4CCCC[C@@H]4O)ccc3C2=O)C(=O)N1 (relative stereo) [Example 49]"
label = "T"

[[record]]
compound = "O=C1CCC(N2Cc3cc(CNC4CCC4)ccc3C2=O)C(=O)N1 (stereo not drawn) [Example 41]"
label = "T"

[[record]]
compound = "O=C1CCC(N2Cc3cc(CN[C@@H]4CCCN(Cc5cccc(Cl)c5)C4)ccc3C2=O)C(=O)N1 (stereo partly drawn) [Example 99]"
label = "F"


---

Target: IKZF2 (Homo sapiens, UniProt Q96SW2+Q9UKS7)
Construct: expressed in transfected cells
Sequence (Q9UKS7 1-500 isoform Q9UKS7-2): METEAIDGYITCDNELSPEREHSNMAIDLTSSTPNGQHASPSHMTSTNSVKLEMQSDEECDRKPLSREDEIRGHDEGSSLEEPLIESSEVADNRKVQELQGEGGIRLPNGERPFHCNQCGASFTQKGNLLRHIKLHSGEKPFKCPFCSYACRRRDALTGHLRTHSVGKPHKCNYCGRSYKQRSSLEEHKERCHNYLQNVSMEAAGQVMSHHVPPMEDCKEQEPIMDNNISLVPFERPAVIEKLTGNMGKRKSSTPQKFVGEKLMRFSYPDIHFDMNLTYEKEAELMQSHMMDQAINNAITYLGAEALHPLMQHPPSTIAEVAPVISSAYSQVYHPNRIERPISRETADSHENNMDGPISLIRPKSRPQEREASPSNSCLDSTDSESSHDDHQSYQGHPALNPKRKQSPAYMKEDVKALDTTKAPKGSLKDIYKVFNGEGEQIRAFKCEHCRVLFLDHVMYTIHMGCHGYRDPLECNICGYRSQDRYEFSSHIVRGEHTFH
Sequence (Q96SW2 whole entry): as the sequence (Q96SW2 whole entry) above
Sequence (Q16531 whole entry partner): as the sequence (Q16531 whole entry partner) above
Assay: HiBiT protein tagging assay, in vitro IKZF2 degradation (HEK293)
Format: cell-based
Settings: HEK293, HiBiT assay, HEK293, 18-24 hr incubation, normalized to DMSO control; read-out: IKZF2 Dmax (maximum degradation at the highest concentration tested)
Measured Dmax of individual entries
measured.property: Dmax

[[record]]
molecule = "O=C1CCC(N2Cc3cc(CN[C@@H]4CCC[C@H](Cc5ccccc5)C4)ccc3C2=O)C(=O)N1 (some centres unmarked)"
result = "97%"

[[record]]
molecule = "O=C1CCC(N2Cc3cc(CNC4CC(c5ccccc5)CN(Cc5ccccc5)C4)ccc3C2=O)C(=O)N1 (centres unmarked)"
result = "30%"

[[record]]
molecule = "C[C@H]1CC[C@H](NCc2ccc3c(c2)CN(C2CCC(=O)NC2=O)C3=O)CC1 (some centres unmarked)"
result = "82%"

[[record]]
molecule = "O=C1CCC(N2Cc3cc(CN[C@@H]4CCCN(Cc5cccc(Cl)c5)C4)ccc3C2=O)C(=O)N1 (some centres unmarked)"
result = "97%"

[[record]]
molecule = "O=C1CCC(N2Cc3cc(CNC4(CCc5ccccc5)CCCCC4)ccc3C2=O)C(=O)N1 (centres unmarked)"
result = "65%"


---

Target: IKZF1 (Homo sapiens, UniProt Q13422+Q96SW2)
Construct: expressed in transfected cells
Experiment: HiBiT protein tagging assay, in vitro IKZF1 degradation (HEK293)
Assay type: cell-based
Details: HEK293, 18-24 hr incubation, normalized to DMSO control, read-out: IKZF1 Dmax (maximum degradation at the highest concentration tested)
measured.property: Dmax (%)

[[record]]
compound = "O=C1CCC(N2Cc3cc(CN[C@@H]4CCC[C@H]([C@H](O)c5ccccc5)C4)ccc3C2=O)C(=O)N1 (some centres unmarked)"
measured_property = "Dmax"
readout_number = 93

[[record]]
compound = "O=C1CCC(N2Cc3cc(CN[C@@H]4CCCN(Cc5ccccc5Cl)C4)ccc3C2=O)C(=O)N1 (some centres unmarked)"
measured_property = "Dmax"
readout_number = 97

[[record]]
compound = "O=C1CCC(N2Cc3cc(CN[C@@H]4CCC[C@H](Nc5ccccc5)C4)ccc3C2=O)C(=O)N1 (some centres unmarked)"
measured_property = "Dmax"
readout_number = 88

[[record]]
compound = "C[C@H](c1ccccc1)N1CCC[C@@H](NCc2ccc3c(c2)CN(C2CCC(=O)NC2=O)C3=O)C1 (some centres unmarked)"
measured_property = "Dmax"
readout_number = 94

[[record]]
compound = "O=C1CCC(N2Cc3cc(CN[C@@H]4CCC[C@H](Cc5ccccc5Cl)C4)ccc3C2=O)C(=O)N1 (some centres unmarked)"
measured_property = "Dmax"
readout_number = 95


---

Measured DC50 of individual entries
Molecular target: IKZF1 (Homo sapiens, UniProt Q13422+Q96SW2)
Construct: expressed in transfected cells
Assay: HiBiT protein tagging assay, in vitro IKZF1 degradation (HEK293)
Type: cell-based
Details: HEK293, 18-24 hr incubation, normalized to DMSO control, read-out: IKZF1 EC50
measured.property: DC50 (nM)

[[record]]
compound = "C[C@@H]1[C@H]2C[C@@H](C[C@H]1NCc1ccc3c(c1)CN(C1CCC(=O)NC1=O)C3=O)C2(C)C (some centres unmarked) [Example 139]"
measure_unit = "nM"
reading_qualifier = ">"
readout_number = 1000

[[record]]
compound = "CCCC[C@H]1CC[C@H](NCc2ccc3c(c2)CN(C2CCC(=O)NC2=O)C3=O)CC1 (some centres unmarked) [Example 79]"
measure_unit = "nM"
reading_qualifier = "="
readout_number = 169

[[record]]
compound = "O=C1CCC(N2Cc3cc(CNC4CCCC5(CCCC5)C4)ccc3C2=O)C(=O)N1 (centres unmarked) [Example 133]"
measure_unit = "nM"
reading_qualifier = "="
readout_number = 185

[[record]]
compound = "O=C1CCC(N2Cc3cc(CNC4CC5CNC4C5)ccc3C2=O)C(=O)N1 (centres unmarked) [Example 98]"
measure_unit = "nM"
reading_qualifier = "="
readout_number = 1500

[[record]]
compound = "O=C1CCC(N2Cc3cc(CN[C@@H]4CCC[C@H](Cc5ccccc5)C4)ccc3C2=O)C(=O)N1 (some centres unmarked) [Example 115]"
measure_unit = "nM"
reading_qualifier = "="
readout_number = 4

[[record]]
compound = "O=C1CCC(N2Cc3cc(CN[C@H]4C[C@H]5CC[C@@H]4C5)ccc3C2=O)C(=O)N1 (some centres unmarked) [Example 72]"
measure_unit = "nM"
reading_qualifier = ">"
readout_number = 10000

[[record]]
compound = "C[C@H]1CC[C@H](NCc2ccc3c(c2)CN(C2CCC(=O)NC2=O)C3=O)CC1 (some centres unmarked) [Example 47]"
measure_unit = "nM"
reading_qualifier = "="
readout_number = 189

[[record]]
compound = "O=C1CCC(N2Cc3cc(CN[C@@H]4CCC[C@H](Oc5ccccc5)C4)ccc3C2=O)C(=O)N1 (some centres unmarked) [Example 92]"
measure_unit = "nM"
reading_qualifier = "="
readout_number = 16


---

Target: IKZF1 (Homo sapiens, UniProt Q13422+Q96SW2)
Construct: expressed in transfected cells
Assay: HiBiT protein tagging assay, in vitro IKZF1 degradation (HEK293)
Format: cell-based
Details: HEK293, 18-24 hr incubation, normalized to DMSO control, read-out: IKZF1 EC50
One threshold, 60 nM, splits the recorded DC50 values: lower ones are 1, equal or higher ones are -1.

[[record]]
compound = "O=C1CCC(N2Cc3cc(CN[C@H]4CC[C@@H](C(F)(F)F)CC4)ccc3C2=O)C(=O)N1 (stereo partly drawn) [Example 85]"
label = -1

[[record]]
compound = "O=C1CCC(N2Cc3cc(CN[C@H]4CCN(Cc5ccccc5)C4)ccc3C2=O)C(=O)N1 (stereo partly drawn) [Example 19]"
label = -1

[[record]]
compound = "O=C1CCC(N2Cc3cc(CNCc4ccccc4)ccc3C2=O)C(=O)N1 (stereo not drawn) [Example 33]"
label = 1

[[record]]
compound = "CCN1CCC(NCc2ccc3c(c2)CN(C2CCC(=O)NC2=O)C3=O)CC1 (stereo not drawn) [Example 48]"
label = -1

[[record]]
compound = "C[C@@H](NCc1ccc2c(c1)CN(C1CCC(=O)NC1=O)C2=O)c1ccccc1 (stereo partly drawn) [Example 16]"
label = 1

[[record]]
compound = "O=C1CCC(N2Cc3cc(CN[C@H]4CC5CCC4CC5)ccc3C2=O)C(=O)N1 (stereo partly drawn) [Example 95]"
label = -1

[[record]]
compound = "C[C@@H]1CCCC[C@@H]1NCc1ccc2c(c1)CN(C1CCC(=O)NC1=O)C2=O (stereo partly drawn) [Example 46]"
label = -1

[[record]]
compound = "O=C1CCC(N2Cc3cc(CNC45CC(C4)C5)ccc3C2=O)C(=O)N1 (stereo not drawn) [Example 15]"
label = -1

[[record]]
compound = "O=C1CCC(N2Cc3cc(CN[C@@H]4CCCC[C@H]4Cc4ccccc4)ccc3C2=O)C(=O)N1 (stereo partly drawn) [Example 67]"
label = 1

[[record]]
compound = "O=C1CCC(N2Cc3cc(CNC4CCCC5(CC5)C4)ccc3C2=O)C(=O)N1 (stereo not drawn) [Example 132]"
label = -1

[[record]]
compound = "O=C1CCC(N2Cc3cc(CNC4CCC(Cc5ccccc5)C4)ccc3C2=O)C(=O)N1 (stereo not drawn) [Example 69]"
label = -1


---

Measured DC50 of individual entries
Target: IKZF1 (Homo sapiens, UniProt Q13422+Q96SW2)
Construct: expressed in transfected cells
Test: HiBiT protein tagging assay, in vitro IKZF1 degradation (HEK293)
Format: cell-based
Details: HEK293, 18-24 hr incubation, normalized to DMSO control, read-out: IKZF1 EC50
measured.property: DC50 (nM)

[[record]]
compound = "O=C1CCC(N2Cc3cc(CNC45CCCC(O)(C4)C5)ccc3C2=O)C(=O)N1 (centres unmarked)"
measured_property = "DC50"
reading_qualifier = ">"
readout_number = 1000

[[record]]
compound = "O=C1CCC(N2Cc3cc(CN[C@@H]4CCCC[C@H]4O)ccc3C2=O)C(=O)N1 (some centres unmarked)"
measured_property = "DC50"
reading_qualifier = ">"
readout_number = 10000

[[record]]
compound = "O=C1CCC(N2Cc3cc(CN[C@H]4CCC[C@@H](Cc5ccccc5)C4)ccc3C2=O)C(=O)N1 (some centres unmarked) [Example 116]"
measured_property = "DC50"
reading_qualifier = "="
readout_number = 23

[[record]]
compound = "O=C1CCC(N2Cc3cc(CN[C@@H]4CCCC[C@H]4OCc4ccccc4Cl)ccc3C2=O)C(=O)N1 (some centres unmarked)"
measured_property = "DC50"
reading_qualifier = "="
readout_number = 246

[[record]]
compound = "O=C1CCC(N2Cc3cc(CNCC4CCc5ccccc5C4)ccc3C2=O)C(=O)N1 (centres unmarked)"
measured_property = "DC50"
reading_qualifier = "="
readout_number = 36

[[record]]
compound = "O=C1CCC(N2Cc3cc(CN[C@@H]4CCC[C@H](C(=O)c5ccccc5)C4)ccc3C2=O)C(=O)N1 (some centres unmarked)"
measured_property = "DC50"
reading_qualifier = "="
readout_number = 113

[[record]]
compound = "O=C1CCC(N2Cc3cc(CNC4CCN(C(=O)OCc5ccccc5)CC4)ccc3C2=O)C(=O)N1 (centres unmarked)"
measured_property = "DC50"
reading_qualifier = "="
readout_number = 7

[[record]]
compound = "O=C1CCC(N2Cc3cc(CN[C@H]4CC[C@H](C(F)(F)F)CC4)ccc3C2=O)C(=O)N1 (some centres unmarked)"
measured_property = "DC50"
reading_qualifier = "="
readout_number = 144

[[record]]
compound = "CO[C@H]1CC[C@H](NCc2ccc3c(c2)CN(C2CCC(=O)NC2=O)C3=O)CC1 (some centres unmarked)"
measured_property = "DC50"
reading_qualifier = "="
readout_number = 184

[[record]]
compound = "O=C1CCC(N2Cc3cc(CN[C@@H]4CCC[C@H]([C@@H](O)c5ccccc5)C4)ccc3C2=O)C(=O)N1 (some centres unmarked)"
measured_property = "DC50"
reading_qualifier = "="
readout_number = 95

[[record]]
compound = "O=C1CCC(N2Cc3cc(CN[C@H]4C[C@@H](O)C4)ccc3C2=O)C(=O)N1 (some centres unmarked)"
measured_property = "DC50"
reading_qualifier = "="
readout_number = 367

[[record]]
compound = "O=C1CCC(N2Cc3cc(CNC4Cc5ccccc5N(Cc5ccccc5)C4)ccc3C2=O)C(=O)N1 (centres unmarked)"
measured_property = "DC50"
reading_qualifier = "="
readout_number = 84

[[record]]
compound = "O=C1CCC(N2Cc3cc(CNC4CCC5(CC4)CC5)ccc3C2=O)C(=O)N1 (centres unmarked)"
measured_property = "DC50"
reading_qualifier = "="
readout_number = 50

[[record]]
compound = "C[C@@H](c1ccccc1)N1CCC[C@@H](NCc2ccc3c(c2)CN(C2CCC(=O)NC2=O)C3=O)C1 (some centres unmarked)"
measured_property = "DC50"
reading_qualifier = "="
readout_number = 9

[[record]]
compound = "O=C1CCC(N2Cc3cc(CNC4CCN(C(=O)NCc5ccccc5)CC4)ccc3C2=O)C(=O)N1 (centres unmarked)"
measured_property = "DC50"
reading_qualifier = "="
readout_number = 68

[[record]]
compound = "O=C1CCC(N2Cc3cc(CNC4CCC5(CCC5)CC4)ccc3C2=O)C(=O)N1 (centres unmarked)"
measured_property = "DC50"
reading_qualifier = "="
readout_number = 50

[[record]]
compound = "O=C1CCC(N2Cc3cc(CN[C@@H]4CCC[C@H](Nc5ccccc5)C4)ccc3C2=O)C(=O)N1 (some centres unmarked)"
measured_property = "DC50"
reading_qualifier = "="
readout_number = 30

[[record]]
compound = "CO[C@@H]1CCCC[C@H]1NCc1ccc2c(c1)CN(C1CCC(=O)NC1=O)C2=O (some centres unmarked)"
measured_property = "DC50"
reading_qualifier = "="
readout_number = 213

[[record]]
compound = "O=C1CCC(N2Cc3cc(CNC45CCC(CO)(CC4)C5)ccc3C2=O)C(=O)N1 (centres unmarked)"
measured_property = "DC50"
reading_qualifier = "="
readout_number = 374

[[record]]
compound = "O=C1CCC(N2Cc3cc(CNC4CCCC(Cn5cccn5)C4)ccc3C2=O)C(=O)N1 (centres unmarked)"
measured_property = "DC50"
reading_qualifier = "="
readout_number = 169

